Data credit: ChEMBL document CHEMBL5724914

- experimental-setup: human gut metagenome, 24 h, 2 µM; note: call rule not given here
quantity-kind: Bacterial Biotransformation

{"compound": "CC(C)OC(=O)C(C)(C)Oc1ccc(C(=O)c2ccc(Cl)cc2)cc1 [FENOFIBRATE]", "test-value": "Compound NOT metabolized"}
{"compound": "CCOC(=O)[C@H](CCc1ccccc1)N[C@@H](C)C(=O)N1[C@H](C(=O)O)C[C@@H]2CCC[C@@H]21", "test-value": "Compound metabolized"}
{"compound": "Cc1ccc(-c2nc3ccc(C)cn3c2CC(=O)N(C)C)cc1 [ZOLPIDEM]", "test-value": "Compound metabolized"}
{"compound": "COc1cc2nc(N(C)CCCNC(=O)C3CCCO3)nc(N)c2cc1OC (centres undefined) [ALFUZOSIN]", "test-value": "Compound NOT metabolized"}

Return reported Bacterial Biotransformation values for all items listed beneath this line.
1. CCN(CC)CCOC(=O)C(Cc1cccc2ccccc12)CC1CCCO1.O=C(O)C(=O)O (centres undefined) [NAFRONYL OXALATE]
2. Fc1ccc([C@@H]2CCNC[C@H]2COc2ccc3c(c2)OCO3)cc1 [PAROXETINE]
3. C#C[C@]1(O)CC[C@H]2[C@@H]3CCC4=Cc5oncc5C[C@]4(C)[C@H]3CC[C@@]21C [DANAZOL]
4. CN1CCN(C2=Nc3cc(Cl)ccc3Nc3ccccc32)CC1 [CLOZAPINE]
5. c1ccc([C@H]2CN3CCSC3=N2)cc1 [LEVAMISOLE]

Compound metabolized
Compound NOT metabolized
Compound NOT metabolized
Compound metabolized
Compound metabolized
